Data provenance is paper PMC8151276.

TARGET SYSTEM: OXTR (Homo sapiens, UniProt P30559)
Construct: purchased Promega (in-house HiBiT-GPCR construct library, NanoBRET)
Sequence (P30559 whole entry): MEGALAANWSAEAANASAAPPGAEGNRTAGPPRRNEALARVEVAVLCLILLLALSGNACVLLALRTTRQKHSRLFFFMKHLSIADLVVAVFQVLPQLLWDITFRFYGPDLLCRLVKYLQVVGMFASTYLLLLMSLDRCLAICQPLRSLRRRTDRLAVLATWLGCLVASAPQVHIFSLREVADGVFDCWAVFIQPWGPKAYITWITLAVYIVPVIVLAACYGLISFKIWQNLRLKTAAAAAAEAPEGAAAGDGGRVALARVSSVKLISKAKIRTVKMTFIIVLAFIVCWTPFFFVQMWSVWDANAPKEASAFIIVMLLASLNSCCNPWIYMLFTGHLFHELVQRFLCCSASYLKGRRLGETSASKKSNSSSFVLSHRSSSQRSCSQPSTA
PROCEDURE SUMMARY: NanoBRET screen HiBiT-OXTR in HEK293
Format: binding
COND: OXTR; tracer 0.1μM
Experimental: Each tracer candidate was screened across the entire library of HiBiT-GPCR constructs using NanoBRET as the detection modality. As depicted in Figure 4A, the specificity of interactions was evaluated through decrease in BRET due to competitive displacement of a bound tracer by excess parental compound. Each tracer was analyzed for binding to each HiBiT-GPCR fusion in the absence and in the presence of competing parental compound. […]
ASSAY METRIC: NanoBRET Fold Response
Hey, just send me the number, nothing else.

COMPOUND	EXPERIMENTAL VALUE
O=C(CCOCCOCCOCCOCCNC(=O)CCc1ccc2n1[B-](F)(F)[N+]1=C(c3ccc[nH]3)C=CC1=C2)NCCCN1CCN(C2=Nc3ccccc3Oc3ccc(Cl)cc32)CC1 [Loxapine-a-2-NB590]	0.97

Asked: What NanoBRET Fold Response value was documented for this compound, COc1ccccc1N1CCN(CCCCN2C(=O)c3ccc(CNC(=O)CCOCCOCCOCCOCCNC(=O)CCc4ccc5n4[B-](F)(F)[N+]4=C(c6ccc[nH]6)C=CC4=C5)cc3C2=O)CC1 [NAN-190-2-NB590] ?
Given back: 0.96

Asked: What NanoBRET Fold Response value was documented for this compound, O=C(CCc1ccc2n1[B-](F)(F)[N+]1=C(c3ccc[nH]3)C=CC1=C2)NCc1ccc(C(=O)NCCOCCC(=O)N[C@@H]2CC[C@@]3(O)[C@H]4Cc5ccc(O)c6c5[C@@]3(CCN4CC3CC3)[C@H]2O6)cc1 [Naltrexone-3-NB590] ?
Given back: 0.99

Asked: What NanoBRET Fold Response value was documented for this compound, N#CN=C(NCCCOc1cccc(CN2CCCCC2)c1)NCCNC(=O)CCOCCOCCOCCOCCNC(=O)CCc1ccc2n1[B-](F)(F)[N+]1=C(c3ccc[nH]3)C=CC1=C2 [Aminopotentidine-2-NB590] ?
Given back: 1.06

Asked: What NanoBRET Fold Response value was documented for this compound, O=C(CCc1ccc2n1[B-](F)(F)[N+]1=C(c3ccc[nH]3)C=CC1=C2)NCCOCCOCCNC(=O)OCCOCCN1CCN(C2=Nc3ccccc3Sc3ccccc32)CC1 [Quetiapine-a-2-NB590] ?
Given back: 1.10

====

TARGET SYSTEM: CCR1 (Homo sapiens)
Construct: purchased Promega (in-house HiBiT-GPCR construct library, NanoBRET)
Sequence (P32246 whole entry): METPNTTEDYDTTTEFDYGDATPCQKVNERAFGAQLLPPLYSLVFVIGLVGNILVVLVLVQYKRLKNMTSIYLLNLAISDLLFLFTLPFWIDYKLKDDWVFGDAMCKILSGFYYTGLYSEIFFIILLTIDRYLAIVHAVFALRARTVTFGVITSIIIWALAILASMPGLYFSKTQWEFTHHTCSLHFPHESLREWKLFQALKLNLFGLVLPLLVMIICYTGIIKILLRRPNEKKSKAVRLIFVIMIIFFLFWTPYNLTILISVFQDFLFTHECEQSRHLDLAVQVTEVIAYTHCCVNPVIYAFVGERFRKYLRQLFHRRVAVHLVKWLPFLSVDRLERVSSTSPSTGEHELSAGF
PROCEDURE SUMMARY: NanoBRET screen HiBiT-CCR1 in HEK293
Type: binding
COND: CCR1; tracer 1μM
The label is t for NanoBRET Fold Response below 1 and f for NanoBRET Fold Response equal to or exceeding 1.

Illustrative cases are given below, each with its answer.
MOLECULE	ASSIGNED CLASS
CC(C)N(CC[C@H](c1ccccc1)c1cc(CCNC(=O)c2ccc(CNC(=O)CCc3ccc4n3[B-](F)(F)[N+]3=C(c5ccc[nH]5)C=CC3=C4)cc2)ccc1O)C(C)C [Tolterodine-BZ-NB590]	t
CCCn1c(=O)c2[nH]c(-c3ccc(OCC(=O)NCCNC(=O)CCOCCNC(=O)c4ccc(CNC(=O)CCc5ccc6n5[B-](F)(F)[N+]5=C(c7ccc[nH]7)C=CC5=C6)cc4)cc3)nc2n(CCC)c1=O [XAC-3-NB590]	f
CC(C)N(CC[C@H](c1ccccc1)c1cc(CCNC(=O)CCOCCOCCOCCOCCNC(=O)CCc2ccc3n2[B-](F)(F)[N+]2=C(c4ccc[nH]4)C=CC2=C3)ccc1O)C(C)C [Tolterodine-2-NB590]	t
O=C(CCc1ccc2n1[B-](F)(F)[N+]1=C(c3ccc[nH]3)C=CC1=C2)NCc1ccc(C(=O)NCCOCCC(=O)N[C@@H]2CC[C@@]3(O)[C@H]4Cc5ccc(O)c6c5[C@@]3(CCN4CC3CC3)[C@H]2O6)cc1 [Naltrexone-3-NB590]	t

Asked: Hello, is NanoBRET Fold Response of the following molecule strictly smaller than 1? COc1ccccc1N1CCN(CCCCN2C(=O)c3ccc(CNC(=O)CCOCCOCCOCCOCCNC(=O)CCc4ccc5n4[B-](F)(F)[N+]4=C(c6ccc[nH]6)C=CC4=C5)cc3C2=O)CC1 [NAN-190-2-NB590]
Given back: f

Asked: Hello, is NanoBRET Fold Response of the following molecule strictly smaller than 1? N#CN=C(NCCCOc1cccc(CN2CCCCC2)c1)NCCNC(=O)CCOCCOCCOCCOCCNC(=O)CCc1ccc2n1[B-](F)(F)[N+]1=C(c3ccc[nH]3)C=CC1=C2 [Aminopotentidine-2-NB590]
Given back: f

Asked: Hello, is NanoBRET Fold Response of the following molecule strictly smaller than 1? COc1ccccc1N1CCN(CCCCN2C(=O)c3ccc(CNC(=O)CCOCCNC(=O)c4ccc(CNC(=O)CCc5ccc6n5[B-](F)(F)[N+]5=C(c7ccc[nH]7)C=CC5=C6)cc4)cc3C2=O)CC1 [NAN-190-3-NB590]
Given back: t

====

TARGET SYSTEM: CCKBR (Homo sapiens, UniProt P32239)
Construct: purchased Promega (in-house HiBiT-GPCR construct library, NanoBRET)
Sequence (P32239 whole entry): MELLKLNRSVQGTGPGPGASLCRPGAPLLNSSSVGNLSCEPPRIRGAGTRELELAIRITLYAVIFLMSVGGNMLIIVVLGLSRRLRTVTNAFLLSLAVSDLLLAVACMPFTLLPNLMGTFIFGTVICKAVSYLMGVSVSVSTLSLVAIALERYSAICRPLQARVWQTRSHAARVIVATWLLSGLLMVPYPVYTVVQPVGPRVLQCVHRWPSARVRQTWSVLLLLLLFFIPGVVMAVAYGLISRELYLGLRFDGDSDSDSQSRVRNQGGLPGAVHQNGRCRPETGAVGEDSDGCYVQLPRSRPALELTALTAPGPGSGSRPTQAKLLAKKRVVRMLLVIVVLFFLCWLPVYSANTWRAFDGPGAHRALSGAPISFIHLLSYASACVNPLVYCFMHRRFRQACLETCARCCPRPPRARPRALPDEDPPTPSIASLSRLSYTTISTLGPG
PROCEDURE SUMMARY: NanoBRET screen HiBiT-CCKBR in HEK293
Format: binding
COND: CCKBR; tracer 0.1μM
Classification field: enter Y for NanoBRET Fold Response values not below 1, N for values below it.

MOLECULE	ASSIGNED CLASS
O=C(CCOCCOCCOCCOCCNC(=O)CCc1ccc2n1[B-](F)(F)[N+]1=C(c3ccc[nH]3)C=CC1=C2)NCCCN1CCN(C2=Nc3ccccc3Oc3ccc(Cl)cc32)CC1	Y
CC(C)N(CC[C@H](c1ccccc1)c1cc(CCNC(=O)CCOCCOCCOCCOCCNC(=O)CCc2ccc3n2[B-](F)(F)[N+]2=C(c4ccc[nH]4)C=CC2=C3)ccc1O)C(C)C	N
CC(C)N(CC[C@H](c1ccccc1)c1cc(CCNC(=O)c2ccc(CNC(=O)CCc3ccc4n3[B-](F)(F)[N+]3=C(c5ccc[nH]5)C=CC3=C4)cc2)ccc1O)C(C)C	N

Asked: Determine whether this molecule has NanoBRET Fold Response no lower than 1: O=C(CCc1ccc2n1[B-](F)(F)[N+]1=C(c3ccc[nH]3)C=CC1=C2)NCc1ccc(C(=O)NCCOCCC(=O)N[C@@H]2CC[C@@]3(O)[C@H]4Cc5ccc(O)c6c5[C@@]3(CCN4CC3CC3)[C@H]2O6)cc1 [Naltrexone-3-NB590]
Given back: N

====

TARGET SYSTEM: CXCR4 (Homo sapiens)
Construct: purchased Promega (in-house HiBiT-GPCR construct library, NanoBRET)
Sequence (P61073 whole entry): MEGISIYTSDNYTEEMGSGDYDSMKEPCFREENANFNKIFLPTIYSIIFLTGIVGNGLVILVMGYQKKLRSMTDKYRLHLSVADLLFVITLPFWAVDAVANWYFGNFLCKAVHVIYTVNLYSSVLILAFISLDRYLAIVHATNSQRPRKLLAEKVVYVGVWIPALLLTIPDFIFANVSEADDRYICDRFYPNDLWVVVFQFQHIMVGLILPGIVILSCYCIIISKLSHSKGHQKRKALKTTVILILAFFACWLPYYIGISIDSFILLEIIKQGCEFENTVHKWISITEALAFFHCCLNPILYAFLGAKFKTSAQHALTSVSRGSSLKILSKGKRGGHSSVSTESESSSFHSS
PROCEDURE SUMMARY: NanoBRET screen HiBiT-CXCR4 in HEK293
Type: binding
COND: CXCR4; tracer 0.1μM
ASSAY METRIC: NanoBRET Fold Response
Hey, just send me the number, nothing else.

Worked examples follow.
MOLECULE	ASSAY METRIC	EXPERIMENTAL VALUE
CC(C)N(CC[C@H](c1ccccc1)c1cc(CCNC(=O)c2ccc(CNC(=O)CCc3ccc4n3[B-](F)(F)[N+]3=C(c5ccc[nH]5)C=CC3=C4)cc2)ccc1O)C(C)C [Tolterodine-BZ-NB590]	NanoBRET Fold Response	0.94
Cc1nc2n(c(=O)c1CCN1CCC(c3noc4cc(F)ccc34)CC1)CCCC2OC(=O)NCCOCCOCCOCCOCCNC(=O)CCc1ccc2n1[B-](F)(F)[N+]1=C(c3ccc[nH]3)C=CC1=C2 (stereo not drawn) [Risperidone-2-NB590]	NanoBRET Fold Response	1.05

We next turn to a different molecule, shown below.
Asked: What NanoBRET Fold Response value was documented for this molecule, O=C(CCc1ccc2n1[B-](F)(F)[N+]1=C(c3ccc[nH]3)C=CC1=C2)NCCOCCOCCNC(=O)OCCOCCN1CCN(C2=Nc3ccccc3Sc3ccccc32)CC1 [Quetiapine-a-2-NB590] ?
Given back: 0.98

====

Listed below: NanoBRET Fold Response values for each entry.
TARGET SYSTEM: BRS3 (Homo sapiens, UniProt P32247)
Construct: purchased Promega (in-house HiBiT-GPCR construct library, NanoBRET)
Sequence (P32247 whole entry): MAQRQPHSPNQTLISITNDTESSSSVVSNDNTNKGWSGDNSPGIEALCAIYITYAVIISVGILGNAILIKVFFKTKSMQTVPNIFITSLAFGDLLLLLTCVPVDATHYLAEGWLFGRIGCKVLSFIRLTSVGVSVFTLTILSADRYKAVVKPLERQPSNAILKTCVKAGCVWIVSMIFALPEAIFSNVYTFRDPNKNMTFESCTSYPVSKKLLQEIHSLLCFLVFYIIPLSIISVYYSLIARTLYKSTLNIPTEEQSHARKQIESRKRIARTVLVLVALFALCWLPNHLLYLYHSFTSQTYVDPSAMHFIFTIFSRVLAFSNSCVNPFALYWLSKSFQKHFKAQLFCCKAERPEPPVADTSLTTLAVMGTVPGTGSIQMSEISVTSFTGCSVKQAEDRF
PROCEDURE SUMMARY: NanoBRET screen HiBiT-BRS3 in HEK293
Assay type: binding
COND: BRS3; tracer 0.1μM

COMPOUND	TARGET SYSTEM	NanoBRET Fold Response
Cc1nc2n(c(=O)c1CCN1CCC(c3noc4cc(F)ccc34)CC1)CCCC2OC(=O)NCCOCCOCCOCCOCCNC(=O)CCc1ccc2n1[B-](F)(F)[N+]1=C(c3ccc[nH]3)C=CC1=C2 (centres unmarked)	BRS3 (Homo sapiens, UniProt P32247)	0.95
N#CN=C(NCCCOc1cccc(CN2CCCCC2)c1)NCCNC(=O)CCOCCOCCOCCOCCNC(=O)CCc1ccc2n1[B-](F)(F)[N+]1=C(c3ccc[nH]3)C=CC1=C2	BRS3 (Homo sapiens, UniProt P32247)	1.02

Asked: Give BRS3 (Homo sapiens, UniProt P32247) NanoBRET Fold Response for "CC(C)N(CC[C@H](c1ccccc1)c1cc(CCNC(=O)c2ccc(CNC(=O)CCc3ccc4n3[B-](F)(F)[N+]3=C(c5ccc[nH]5)C=CC3=C4)cc2)ccc1O)C(C)C"
Given back: 0.89

Asked: Give BRS3 (Homo sapiens, UniProt P32247) NanoBRET Fold Response for "COc1ccccc1N1CCN(CCCCN2C(=O)c3ccc(CNC(=O)CCOCCNC(=O)c4ccc(CNC(=O)CCc5ccc6n5[B-](F)(F)[N+]5=C(c7ccc[nH]7)C=CC5=C6)cc4)cc3C2=O)CC1"
Given back: 0.95
